These records show Ki for Mu-type opioid receptor (Rattus norvegicus).
Report the value in nM with no unit label.

C=CCN1CC[C@]23c4c5ccc(O)c4O[C@H]2[C@@H](O)C=C[C@H]3[C@H]1C5.Cl [NALORPHINE HYDROCHLORIDE] ... 2
CN1CC=C(c2cccc(O)c2)[C@@]2(C)CCC[C@@H]12 ... 81

Attention now turns to another entry.
Query string: Give the measured Ki of "CC[C@]12CCC[C@H]1N(C)CC=C2c1cccc(O)c1" .
Result string: 84

Value source: ChEMBL document CHEMBL1123752
